molecular target: COX-2 (human recombinant) (Homo sapiens); assay: In vitro COX-2 inhibition assay (EIA kit); details: mean of three replicates ± SEM
Sequence (P35354 18-604): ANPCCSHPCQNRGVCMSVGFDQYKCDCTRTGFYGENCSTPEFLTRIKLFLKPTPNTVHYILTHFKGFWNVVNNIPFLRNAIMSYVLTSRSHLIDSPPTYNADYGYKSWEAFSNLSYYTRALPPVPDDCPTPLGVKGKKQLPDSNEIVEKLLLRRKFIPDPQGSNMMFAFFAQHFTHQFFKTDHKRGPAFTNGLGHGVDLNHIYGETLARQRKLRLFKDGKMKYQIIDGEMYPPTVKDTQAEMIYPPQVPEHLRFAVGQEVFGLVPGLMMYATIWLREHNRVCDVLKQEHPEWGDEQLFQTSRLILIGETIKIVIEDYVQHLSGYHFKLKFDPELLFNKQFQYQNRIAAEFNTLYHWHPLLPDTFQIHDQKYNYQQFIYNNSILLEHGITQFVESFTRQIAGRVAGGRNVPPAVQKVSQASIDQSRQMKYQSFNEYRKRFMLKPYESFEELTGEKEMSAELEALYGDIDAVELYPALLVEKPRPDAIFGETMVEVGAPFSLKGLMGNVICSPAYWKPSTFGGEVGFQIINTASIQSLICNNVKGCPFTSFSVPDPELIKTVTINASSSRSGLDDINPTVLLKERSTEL
Documented IC50 across a set of compounds
Test Readout: IC50

[[record]]
smiles_repr = "COc1cc(CNC(=O)CCCC/C=C/C(C)C)ccc1O"
assay_result = "28.3 µM"

[[record]]
smiles_repr = "CCCCC[C@H](O)CC(=O)CCc1ccc(O)c(OC)c1"
assay_result = "32.8 µM"


Origin of the recorded values: paper PMC10224994
